Field: FP signal relative to 0 nM. Provide a value for each of the compounds that follow.
- TEST TARGET: Hsp90 in C. albicans (SC5314) lysate (Candida albicans, UniProt P46598)
- Construct: endogenous in cells; host or cells: C. albicans SC5314 whole-cell lysate
- Sequence (P46598 whole entry): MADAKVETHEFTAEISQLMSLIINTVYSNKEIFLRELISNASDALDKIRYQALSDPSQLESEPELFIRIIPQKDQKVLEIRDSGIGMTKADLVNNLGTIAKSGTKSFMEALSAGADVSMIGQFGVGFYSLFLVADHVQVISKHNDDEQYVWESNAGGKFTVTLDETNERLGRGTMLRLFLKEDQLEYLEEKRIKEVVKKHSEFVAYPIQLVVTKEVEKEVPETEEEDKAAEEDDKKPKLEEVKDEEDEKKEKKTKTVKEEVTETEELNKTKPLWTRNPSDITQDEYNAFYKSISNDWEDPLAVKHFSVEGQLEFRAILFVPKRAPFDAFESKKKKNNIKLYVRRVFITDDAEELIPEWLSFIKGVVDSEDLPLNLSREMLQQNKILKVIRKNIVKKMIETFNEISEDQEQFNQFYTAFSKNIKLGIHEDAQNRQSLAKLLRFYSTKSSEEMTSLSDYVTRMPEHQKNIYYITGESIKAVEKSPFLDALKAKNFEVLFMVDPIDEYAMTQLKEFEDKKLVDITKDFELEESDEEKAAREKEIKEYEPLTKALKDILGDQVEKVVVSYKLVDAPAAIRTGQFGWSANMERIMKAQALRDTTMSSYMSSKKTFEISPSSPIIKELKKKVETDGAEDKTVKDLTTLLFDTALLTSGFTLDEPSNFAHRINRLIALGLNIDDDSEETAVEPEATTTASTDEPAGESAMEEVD
- ASSAY METHOD TEXT: biochemical
- Assay type: binding
- CONDITIONS: SC5314 lysate, 12.346 nM compound
Write no unit; give the number alone.

Prompt: Field request: FP signal relative to 0 nM | item: COc1ccc(CON=C2C=CC=CC3OC3CC(C)OC(=O)c3c(O)cc(O)cc3C2)cc1 (stereo not drawn)
Completion: 0.966

Prompt: Give its FP signal relative to 0 nM value. Item: CC1CC2OC2C=CC=CC(=NOCCN2CCCC2=O)Cc2c(Cl)c(O)cc(O)c2C(=O)O1 (stereo not drawn) [KF58333, reference compound]
Completion: 0.343

Prompt: What value of FP signal relative to 0 nM has been recorded for this entry: COc1ccc(CON=C2C=CC=CC3OC3CC(C)OC(=O)c3c(O)cc(O)c(Cl)c3C2)cc1 (mixture of isomers)
Completion: 1

Prompt: Name the recorded FP signal relative to 0 nM for CC1CC2OC2C=CC=CC(=NOCc2cccc(F)c2)Cc2c(Cl)c(O)cc(O)c2C(=O)O1 (mixture of isomers) .
Completion: 0.9602

Prompt: Entry `CCON=C1/C=C/C=C\[C@H]2O[C@H]2C[C@@H](C)OC(=O)c2c(O)cc(O)c(Cl)c2C1` : reported FP signal relative to 0 nM = ?
Completion: 0.401

Prompt: Which value of FP signal relative to 0 nM has been reported for `C[C@@H]1C[C@@H]2O[C@@H]2/C=C\C=C\C(=NOCc2ccccc2Cl)Cc2c(Cl)c(O)cc(O)c2C(=O)O1` in the records?
Completion: 0.9712

Prompt: Field request: FP signal relative to 0 nM | item: CC1CC2OC2C=CC=CC(=NOCc2ccccc2)Cc2c(Cl)c(O)cc(O)c2C(=O)O1 (mixture of isomers)
Completion: 0.9426

Prompt: Any idea what its FP signal relative to 0 nM is? The compound is COc1ccccc1CON=C1C=CC=CC2OC2CC(C)OC(=O)c2c(O)cc(O)c(Cl)c2C1 (mixture of isomers)
Completion: 0.9461

Prompt: # get_value(readout='FP signal relative to 0 nM', item= Cc1ccc(CON=C2C=CC=CC3OC3CC(C)OC(=O)c3c(O)cc(O)c(Cl)c3C2)cc1 (mixture of isomers) )
Completion: 0.966
